organism: Oryctolagus cuniculus; assay: Percent stimulation of adenylate cyclase determined in rabbit heart membranes at 5 uM of compound as compared to 5 uM of forskolin; assay type: functional; settings: Membrane
MEASURE: Stimulation (%)

Observe how each entry below is paired with its result.
[[record]]
compound = "CC(=O)OC1C(O)[C@H]2C(C)(C)CC[C@H](O)C2(C)[C@@]23OC(CO)[C@@](C)(CC2=O)O[C@H]13 (some centres not stated)"
unit_abbrev = "%"
test_value = 0

[[record]]
compound = "C=C[C@@]1(C)CC(=O)[C@@]2(O)[C@H](O1)C(OC(C)=O)C(OC(C)=O)[C@H]1C(C)(C)CC[C@H](OC(C)=O)C12C (some centres not stated)"
unit_abbrev = "%"
test_value = 20

[[record]]
compound = "C=C[C@@]1(C)CC(=O)[C@@]2(O)[C@H](O1)C(OC(=O)N(CC)CC)C(O)[C@H]1C(C)(C)CC[C@H](O)C12C (some centres not stated)"
unit_abbrev = "%"
test_value = 59

[[record]]
compound = "CC[C@@]1(C)CC(=O)[C@@]2(O)[C@H](O1)C(OC(C)=O)C(O)[C@H]1C(C)(C)CC[C@H](O)C12C (some centres not stated)"
unit_abbrev = "%"
test_value = 49

[[record]]
compound = "C=C[C@@]1(C)CC(=O)[C@@]2(O)[C@H](O1)C(OC(C)=O)C(=O)[C@H]1C(C)(C)CCC(=O)C12C (some centres not stated)"
unit_abbrev = "%"
test_value = 0


P: C=C[C@@]1(C)CC(=O)[C@@]23OS(=O)O[C@H]4CCC(C)(C)[C@H](C(O)C(OC(C)=O)[C@H]2O1)C43C (some centres not stated)
Q: C=C[C@@]1(C)CC(=O)[C@@]2(O)[C@H](O1)C(O)C(O)[C@H]1C(C)(C)CC[C@H](O)C12C (some centres not stated)
### Prompt Look at P and Q . Which one has the lower recorded Stimulation number? // caller expects the label of the chosen entry
### Response P
(P: 28%, Q: 51%)
